EXPERIMENTAL_SYSTEM: pERK1/2 (Thr202/Tyr204), NCI-1H441 (KRAS G12V) (Homo sapiens, UniProt P01116, G12V)
Construct: pERK1/2 HTRF read-out
Sequence (P01116 1-188 isoform P01116-2 G12V): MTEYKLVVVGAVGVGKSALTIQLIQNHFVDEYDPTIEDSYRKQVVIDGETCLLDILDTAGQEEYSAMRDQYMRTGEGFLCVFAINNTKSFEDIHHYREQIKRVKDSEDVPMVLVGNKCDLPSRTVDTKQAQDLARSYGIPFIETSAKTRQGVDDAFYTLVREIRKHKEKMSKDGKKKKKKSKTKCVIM
METHOD_DESCRIPTION: Assay of intracellular pERK1/2 (Thr202/Tyr204) phosphorylation in NCI-H441 cells (KRAS G12V)
Type: cell-based
MEASUREMENT_CONTEXT: pERK1/2, 2 days, read-out: NCI-H441 (KRAS G12V) IC50
READOUT_LABEL: IC50 (nM)
I only need the number, in nM, no unit after it.

Known results for compounds:
| COMPOUND | READOUT_LABEL | RESULT |
| --- | --- | --- |
| Cc1cc2[nH]ncc2c(-c2nc3c4c(nc(OC[C@@]56CCCN5C[C@H](F)C6)nc4c2F)N([C@H](C)c2cccnc2N)[C@@H](C2CC2)CO3)c1C(F)(F)F [Compound 390] | IC50 | 31 |
| CC(c1cccnc1N)N1CCOc2nc(-c3cc(N)cc(Cl)c3C(F)(F)F)c(F)c3nc(OC[C@@]45CCCN4C[C@H](F)C5)nc1c23 (stereo partly drawn) [Compound 63] | IC50 | 0.5 |

Consider the record given below.
QUERY: Check the records and state IC50 for CC(c1cccnc1N)N1c2nc(OC[C@@H]3C[C@@H](F)CN3C)nc3c(F)c(-c4cc(O)cc(Cl)c4C4CC4)nc(c23)OC[C@@H]1C (stereo partly drawn) [Compound 291]
RESULT: 0.3

---

EXPERIMENTAL_SYSTEM: pERK1/2 (Thr202/Tyr204), NCI-1H358 (KRAS G12C) (Homo sapiens, UniProt P01116, G12C)
Construct: pERK1/2 HTRF read-out
Sequence (P01116 1-188 isoform P01116-2 G12C): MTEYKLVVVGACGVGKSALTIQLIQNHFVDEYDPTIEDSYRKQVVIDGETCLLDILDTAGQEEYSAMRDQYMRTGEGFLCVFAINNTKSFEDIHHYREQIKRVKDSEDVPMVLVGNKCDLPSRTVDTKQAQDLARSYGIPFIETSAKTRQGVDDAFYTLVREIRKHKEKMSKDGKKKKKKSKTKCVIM
METHOD_DESCRIPTION: Assay of intracellular pERK1/2 (Thr202/Tyr204) phosphorylation in NCI-H358 cells (KRAS G12C)
Type: cell-based
MEASUREMENT_CONTEXT: pERK1/2, 2 days, read-out: NCI-H358 (KRAS G12C) IC50
Text: Example 2: Assay of intracellular pERK1/2 (Thr202/Tyr204)phosphorylation 1. […] Fluorescence ratio=fluorescence value665 nm/fluorescence value615 nm Inhibition rate (%)=100−((fluorescence ratio of compound well−fluorescence ratio of negative control well)/(fluorescence ratio of positive control well−fluorescence ratio of negative control well))×100 […]
Consider the following compounds and their measured pIC50 readings.
The value called pIC50 is obtained by taking minus log10 of the concentration in mol/L.

Known results for compounds:
| COMPOUND | pIC50 |
| --- | --- |
| CC(c1cccnc1N)N1CCOc2nc(-c3cc(O)cc4ccc(F)c(F)c34)c(F)c3nc(OC[C@@H]4CC(F)(F)CN4C)nc1c23 (single isomer, unassigned) [Compound 50] | 6.04 |
| Cc1c(F)c(N)cc(-c2nc3c4c(nc(OC[C@@]56CCCN5C[C@H](F)C6)nc4c2F)N(C(C)c2cccnc2N)[C@@H](C)CO3)c1C(F)(F)F (single isomer, unassigned) [Compound 263] | 7.85 |
| Cc1cc(N)cc(-c2nc3c4c(nc(OC[C@@H]5CCCN5C5COC5)nc4c2F)N(C(C)c2cccnc2N)CCO3)c1C(F)(F)F (some centres unmarked) [Compound 123] | 8.70 |

Consider the record given below.
QUERY: Check the records and state pIC50 for CC(c1cccnc1N)N1CCOc2nc(-c3cc(N)cc(F)c3C(F)(F)F)c(F)c3nc(OC[C@@H]4CCCN4C)nc1c23 (single isomer, unassigned) [Compound 90]
RESULT: 8.70
